compounds and their reported inhibition at 0.1 µM
- experimental target: aldose reductase (Bos taurus, UniProt P16116)
- Construct: preparation of the enzyme from bovine lens; from tissue; host or cells: bovine lens
- assay method text: in vitro aldose reductase inhibition (modified Hayman and Kinoshita procedure)
- Assay type: biochemical, bovine (lens)
- cond: Table 2; 10^-7 M

compound	inhibition at 0.1 µM / %
Cc1nc(-c2cccc3ccccc23)nc(OCC(=O)O)c1C#N [Example 3 (Table 2)]	46
N#Cc1c(OCC(=O)O)nc(-c2cccc3ccccc23)nc1-c1ccccc1 [Example 5 (Table 2)]	53
N#Cc1c(OCC(=O)O)nc(-c2ccccc2)nc1-c1ccccc1 [Example 4 (Table 2)]	85
N#Cc1c(Cc2cccc3ccccc23)nc(-c2cccc3c(Br)cccc23)nc1OCC(=O)O [Example 1 (Table 2)]	46
Cc1nc(-c2ccccc2)nc(OCC(=O)O)c1C#N	79
CC(C)c1nc(-c2cccc3c(Br)cccc23)nc(OCC(=O)O)c1C#N [Example 6 (Table 2)]	53

----------
- experimental target: aldose reductase (Bos taurus)
- Construct: preparation of the enzyme from bovine lens; from tissue; host or cells: bovine lens
- assay method text: in vitro aldose reductase inhibition (modified Hayman and Kinoshita procedure)
- Assay type: biochemical, bovine (lens)
- cond: Table 1; 10^-7 M
- Description: In the present case the procedure of Hayman and Kinoshita was modified in that the final chromatography step was omitted in the preparation of the enzyme from bovine lens.
inhibition at 0.1 µM of 80% or higher: Satisfied. Under 80%: Not satisfied.

smiles representation	class
CC(C)(C)c1nc(OCC(=O)O)c(C#N)c(SCC2CCCCC2)n1	Satisfied
CSc1nc(C(C)C)nc(OCC(=O)O)c1C#N	Satisfied
CC(C)Sc1nc(C(C)(C)C)nc(OCC(=O)O)c1C#N	Satisfied
CSc1nc(C2CCCCC2)nc(OCC(=O)O)c1C#N	Not satisfied
N#Cc1c(OCC(=O)O)nc(C2CCCCC2)nc1SCc1ccccc1	Not satisfied
CSc1nc(-c2cccs2)nc(OCC(=O)O)c1C#N	Satisfied
CSc1nc(CC(C)(C)C)nc(OCC(=O)O)c1C#N	Satisfied
CCCc1nc(OCC(=O)O)c(C#N)c(SC)n1	Not satisfied
CC(C)(C)c1nc(OCC(=O)O)c(C#N)c(SCc2ccc(Br)cc2F)n1	Satisfied
